- study target: α4β7 (Homo sapiens, UniProt P13612+P26010)
- Sequence (P13612 34-1032): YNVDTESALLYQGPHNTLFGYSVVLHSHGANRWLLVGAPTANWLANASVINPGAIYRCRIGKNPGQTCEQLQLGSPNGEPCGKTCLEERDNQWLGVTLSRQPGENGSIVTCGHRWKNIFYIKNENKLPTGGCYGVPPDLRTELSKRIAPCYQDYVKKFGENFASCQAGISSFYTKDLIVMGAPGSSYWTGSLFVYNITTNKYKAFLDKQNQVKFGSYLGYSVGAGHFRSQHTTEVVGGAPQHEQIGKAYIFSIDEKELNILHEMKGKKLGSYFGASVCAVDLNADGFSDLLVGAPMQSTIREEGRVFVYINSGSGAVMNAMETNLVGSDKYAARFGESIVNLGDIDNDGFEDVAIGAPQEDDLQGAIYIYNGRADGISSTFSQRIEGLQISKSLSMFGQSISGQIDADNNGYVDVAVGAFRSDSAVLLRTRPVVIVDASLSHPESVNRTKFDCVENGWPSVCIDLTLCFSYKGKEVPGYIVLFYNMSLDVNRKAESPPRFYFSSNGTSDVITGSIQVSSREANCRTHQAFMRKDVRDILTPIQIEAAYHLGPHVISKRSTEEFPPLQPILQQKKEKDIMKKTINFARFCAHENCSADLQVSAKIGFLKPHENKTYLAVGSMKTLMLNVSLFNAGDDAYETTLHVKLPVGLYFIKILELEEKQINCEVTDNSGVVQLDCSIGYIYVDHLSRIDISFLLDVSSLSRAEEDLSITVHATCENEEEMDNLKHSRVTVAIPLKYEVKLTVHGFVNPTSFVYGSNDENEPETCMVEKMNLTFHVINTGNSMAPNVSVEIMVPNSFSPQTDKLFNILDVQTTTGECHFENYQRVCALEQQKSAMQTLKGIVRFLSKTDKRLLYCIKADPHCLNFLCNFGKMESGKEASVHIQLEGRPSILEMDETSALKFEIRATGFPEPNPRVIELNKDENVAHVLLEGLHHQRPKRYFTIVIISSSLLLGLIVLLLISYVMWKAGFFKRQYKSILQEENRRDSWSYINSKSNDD
- Sequence (P26010 20-798): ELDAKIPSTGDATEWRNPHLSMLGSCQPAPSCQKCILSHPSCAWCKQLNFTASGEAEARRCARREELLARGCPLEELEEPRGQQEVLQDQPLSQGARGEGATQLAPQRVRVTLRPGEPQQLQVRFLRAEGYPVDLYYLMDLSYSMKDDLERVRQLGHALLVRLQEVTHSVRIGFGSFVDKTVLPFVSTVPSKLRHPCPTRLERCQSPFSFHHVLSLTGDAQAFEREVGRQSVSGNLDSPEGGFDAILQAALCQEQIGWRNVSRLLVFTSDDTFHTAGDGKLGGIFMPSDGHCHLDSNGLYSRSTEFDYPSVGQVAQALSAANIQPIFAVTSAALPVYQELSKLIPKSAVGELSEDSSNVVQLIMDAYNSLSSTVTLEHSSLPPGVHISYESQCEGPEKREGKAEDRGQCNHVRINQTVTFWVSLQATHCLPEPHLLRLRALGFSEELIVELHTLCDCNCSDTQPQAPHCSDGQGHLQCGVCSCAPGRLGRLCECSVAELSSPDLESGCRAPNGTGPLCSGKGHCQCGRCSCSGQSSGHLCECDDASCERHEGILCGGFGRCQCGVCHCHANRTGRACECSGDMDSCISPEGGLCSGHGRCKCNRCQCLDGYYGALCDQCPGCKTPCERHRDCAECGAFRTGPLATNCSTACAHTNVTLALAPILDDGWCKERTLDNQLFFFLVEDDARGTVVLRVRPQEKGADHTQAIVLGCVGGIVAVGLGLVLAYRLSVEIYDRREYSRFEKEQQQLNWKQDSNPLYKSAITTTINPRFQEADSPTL
- assay explanation: α4β7-MAdCAM Cell Adhesion Assay (RPMI 8866 human cells)
- Assay type: cell-based
- Set-up: host or cells: RPMI 8866 human B lymphoblastoid cells
- applied conditions: Table 3-B, Potency (α4β7); range classes; read-out: α4β7 cell (Hu) IC50
Bridge positions count the residues as written; N and C are the ends. Square brackets hold non-standard residues; d marks the D form. Peptide text beside a SMILES is read from it. * marks the point of attachment. Phe(4-tBu) = CC(C)(C)c1ccc(C[C@H](N)C(=O)O)cc1; 2Nal = N[C@@H](Cc1ccc2ccccc2c1)C(=O)O; NMeR = CN[C@@H](CCCNC(=N)N)C(=O)O; β3hE = N[C@@H](CCC(=O)O)CC(=O)O; Pen = CC(C)(S)[C@H](N)C(=O)O; Hexanoyl = CCCCCC(=O)*
Give measured IC50 for each item. Keep answers brief.

Record CCCCCC(=O)N[C@@H]1C(=O)N(C)[C@@H](CCCNC(=N)N)C(=O)N[C@@H](CO)C(=O)N[C@@H](CC(=O)O)C(=O)N[C@@H]([C@@H](C)O)C(=O)N[C@@H](CC(C)C)C(=O)N[C@H](C(=O)N[C@@H](Cc2ccc(C(C)(C)C)cc2)C(=O)N[C@@H](CCC(=O)O)CC(=O)N[C@H](CCCCN)C(N)=O)C(C)(C)SSC1(C)C [compound 176] (Hexanoyl-[Pen][NMeR]SDTL[Pen][Phe(4-tBu)][β3hE][dK]-NH2; disulfide 1-7) , field IC50: 50 to 100 nM

Lab note: measured IC50 of CC(=O)N[C@@H]1C(=O)N(C)[C@@H](CCCNC(=N)N)C(=O)N[C@@H](CO)C(=O)N[C@@H](CC(=O)O)C(=O)N[C@@H]([C@@H](C)O)C(=O)N[C@@H](CC(C)C)C(=O)N[C@H](C(=O)N[C@@H](Cc2ccc3ccccc3c2)C(=O)N[C@H](CCC(=O)O)C(=O)N[C@H](CCCCN)C(N)=O)C(C)(C)SSC1(C)C [compound 9] (Ac-[Pen][NMeR]SDTL[Pen][2Nal][dE][dK]-NH2; disulfide 1-7) was 100 to 500 nM

So for CC(=O)N[C@@H]1C(=O)N(C)[C@@H](CCCNC(=N)N)C(=O)N[C@@H](CO)C(=O)N[C@@H](CC(=O)O)C(=O)N[C@@H]([C@@H](C)O)C(=O)N[C@@H](CC(C)C)C(=O)N[C@H](C(=O)N[C@@H](Cc2c[nH]c3ccccc23)C(=O)N[C@@H](CCC(=O)O)CC(=O)O)C(C)(C)SSC1(C)C [compound 146] (Ac-[Pen][NMeR]SDTL[Pen]W[β3hE]-OH; disulfide 1-7) , the logged IC50 turned out to be 50 to 100 nM

----------
Task for the reader: assign each of the following compounds its reported half-life at 22 μM.
- assay explanation: Simulated Intestinal Fluid (SIF) Stability Assay
- Type: in vitro ADME, porcine
- applied conditions: pig, simulated intestinal fluid (SIF) with 1% porcine pancreatin, pH 6.5, Table 3-B; > means experiment was stopped at that time and half life was not reached; read-out: Stabilty SIF t1/2
Bridge positions count the residues as written; N and C are the ends. Square brackets hold non-standard residues; d marks the D form. Peptide text beside a SMILES is read from it. Phe(4-tBu) = CC(C)(C)c1ccc(C[C@H](N)C(=O)O)cc1; 2Nal = N[C@@H](Cc1ccc2ccccc2c1)C(=O)O; NMeR = CN[C@@H](CCCNC(=N)N)C(=O)O; hPhe = N[C@@H](CCc1ccccc1)C(=O)O; β3hE = N[C@@H](CCC(=O)O)CC(=O)O; Pen = CC(C)(S)[C@H](N)C(=O)O
Expressed in h, but write only the number.

Form field half-life at 22 μM, entry CC(=O)N[C@@H]1C(=O)N(C)[C@@H](CCCNC(=N)N)C(=O)N[C@@H](CO)C(=O)N[C@@H](CC(=O)O)C(=O)N[C@@H]([C@@H](C)O)C(=O)N[C@@H](CC(C)C)C(=O)N[C@H](C(=O)N[C@@H](Cc2ccc(C(C)(C)C)cc2)C(=O)N[C@@H](CCC(=O)O)CC(=O)O)C(C)(C)SSC1(C)C [compound 152] (Ac-[Pen][NMeR]SDTL[Pen][Phe(4-tBu)][β3hE]-OH; disulfide 1-7) : 2.45

// half-life at 22 μM lookup, compound = CC(=O)N[C@@H]1C(=O)N(C)[C@@H](CCCNC(=N)N)C(=O)N[C@@H](CO)C(=O)N[C@@H](CC(=O)O)C(=O)N[C@@H]([C@@H](C)O)C(=O)N[C@@H](CC(C)C)C(=O)N[C@H](C(=O)N[C@@H](Cc2ccc3ccccc3c2)C(=O)N[C@@H](CCc2ccccc2)C(=O)N[C@H](CCCCN)C(N)=O)C(C)(C)SSC1(C)C [compound 50] (Ac-[Pen][NMeR]SDTL[Pen][2Nal][hPhe][dK]-NH2; disulfide 1-7) , result: 1.73
